Target: hSGLT1 (Homo sapiens)
Sequence (P13866 whole entry): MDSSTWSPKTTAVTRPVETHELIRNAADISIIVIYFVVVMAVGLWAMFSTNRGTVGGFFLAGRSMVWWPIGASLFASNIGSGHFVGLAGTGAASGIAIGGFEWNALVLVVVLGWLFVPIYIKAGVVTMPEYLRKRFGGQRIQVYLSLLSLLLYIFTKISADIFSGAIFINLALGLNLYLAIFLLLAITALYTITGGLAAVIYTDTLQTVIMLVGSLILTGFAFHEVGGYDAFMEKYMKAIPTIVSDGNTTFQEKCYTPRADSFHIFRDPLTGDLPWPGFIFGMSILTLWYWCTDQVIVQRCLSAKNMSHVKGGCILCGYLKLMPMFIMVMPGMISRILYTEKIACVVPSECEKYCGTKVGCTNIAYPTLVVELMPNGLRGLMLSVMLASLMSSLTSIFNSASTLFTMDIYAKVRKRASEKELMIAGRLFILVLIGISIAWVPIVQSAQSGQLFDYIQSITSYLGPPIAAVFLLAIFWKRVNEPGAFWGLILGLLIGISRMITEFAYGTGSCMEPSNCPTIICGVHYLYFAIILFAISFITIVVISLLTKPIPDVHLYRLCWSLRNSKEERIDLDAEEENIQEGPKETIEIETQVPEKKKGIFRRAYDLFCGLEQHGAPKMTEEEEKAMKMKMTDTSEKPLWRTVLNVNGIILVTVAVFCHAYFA
Assay: SGLT1 functional assay: hSGLT1 IC50 (selectivity counter-screen to the SGLT2 AMG uptake assay)
Conditions: individual runs (Run No.)
pIC50: −log10 of the molar value.
quantityName: pIC50

Consider the reported pIC50 for these molecules:
In plain terms, OC[C@@]12CO[C@@](c3ccc(Cl)c(Cc4ccc(OC5COC5)cc4)c3)(O1)[C@H](O)[C@@H](O)[C@@H]2O [Example 14A] has a documented pIC50 of < 5.00

In plain terms, CCOc1ccc(Cc2cc([C@]34OC[C@](CO)(O3)[C@@H](O)[C@H](O)[C@H]4O)ccc2F)cc1 [Example 10A] has a documented pIC50 of < 5.00

Others:
In plain terms, CCOc1ccc(Cc2cc([C@]34OC[C@](CO)(O3)[C@@H](O)[C@H](O)[C@@H]4O)ccc2Cl)cc1 has a documented pIC50 of < 5.00

---

Assay: Pharmacokinetic testing in rats (IV or PO)
Assay type: in vivo
Conditions: male, Sprague Dawley, plasma; rat, PO, 10 mg/kg, PEG200/0.5% MC
Hi there, I'd appreciate the recorded half-life for every entry that follows.
One number for each entry, in h.

In plain terms, OC[C@@]12CO[C@@](c3ccc(Cl)c(Cc4ccc(OC5COC5)cc4)c3)(O1)[C@H](O)[C@@H](O)[C@@H]2O [Example 14A] has a documented half-life of 1.71

Attention now shifts to the item below.
In plain terms, COc1ccc(Cc2cc([C@]34OC[C@](CO)(O3)[C@@H](O)[C@H](O)[C@H]4O)ccc2C)cc1 [Example 1A] has a documented half-life of 2.82

---

Test: Pharmacokinetic testing in rats (IV or PO)
Assay type: in vivo
Details: male, Sprague Dawley, plasma; rat, PO, 5 mg/kg, 20% PEG/24% HBCD
quantityName: AUC(0-inf) (ng·h/mL)
Answers are plain numbers, in ng·h/mL.

In plain terms, CCOc1ccc(Cc2cc([C@]34OC[C@](CO)(O3)[C@@H](O)[C@H](O)[C@H]4O)ccc2Cl)cc1 has a documented AUC(0-inf) of 16800

---

Assay: Pharmacokinetic testing in rats (IV or PO)
Type: in vivo
Settings: male, Sprague Dawley, plasma; rat, PO, 10 mg/kg, PEG200/0.5% MC
Description: Examples 1A, 2A, 4A, 12A, and 14A were tested in rats to assess pharmacokinetic parameters including maximum concentration (Cmax), area under the plasma concentration time curve (AUC), clearance (CL), steady state volume of distribution (Vss), half life (t1/2), and bioavailability (F). […] Following IV or PO administration, 0.2 mL blood was sampled from the jugular vein at various timepoints (Table 5). […] Samples were vortexed and centrifuged to obtain supernatant which was analyzed by LC-MS/MS. […]
Hi there, I'd appreciate the recorded AUC(0-inf) for every entry that follows.

In plain terms, OC[C@@]12CO[C@@](c3ccc(Cl)c(Cc4ccc(OC5COC5)cc4)c3)(O1)[C@H](O)[C@@H](O)[C@@H]2O [Example 14A] has a documented AUC(0-inf) of 2290 ng·h/mL

Others:
In plain terms, COc1ccc(Cc2cc([C@]34OC[C@](CO)(O3)[C@@H](O)[C@H](O)[C@H]4O)ccc2C)cc1 [Example 1A] has a documented AUC(0-inf) of 2680 ng·h/mL

---

Test: PK satellite group of the in-vivo UGE assay (plasma by LC-MS/MS)
Conditions: male, Sprague Dawley; rat plasma, oral gavage, 60 mg/kg
quantityName: Cmax
Please provide the amount together with its unit, number first.

In plain terms, CCOc1ccc(Cc2cc([C@]34OC[C@](CO)(O3)[C@@H](O)[C@H](O)[C@H]4O)ccc2Cl)cc1 has a documented Cmax of 25300 ng/mL

---

Assay: PK satellite group of the in-vivo UGE assay (plasma by LC-MS/MS)
Conditions: male, Sprague Dawley; rat plasma, oral gavage, 3 mg/kg
Procedure: Male Sprague Dawley rats (˜300 g) were singly housed in metabolic cages for urine collection. […] Rats (n=2 to 5/group) received vehicle or compound by oral gavage. […] Glucose concentration was measured in urine by UV absorbance spectrophotometry at 340 nm using a Roche Hitachi 917 spectrophotometer (Diamond Diagnostics, Holliston, Mass.). […] Blood (0.1 mL) was collected from the PK satellite group animals at 1, 2, 4, 7, 24 hours postdose to obtain plasma and analyzed by LC-MS/MS.
quantityName: Cmax (ng/mL)
Answers are plain numbers, in ng/mL.

In plain terms, CCOc1ccc(Cc2cc([C@]34OC[C@](CO)(O3)[C@@H](O)[C@H](O)[C@H]4O)ccc2Cl)cc1 [Example 4A] has a documented Cmax of 1320

---

Assay: PK satellite group of the in-vivo UGE assay (plasma by LC-MS/MS)
Details: male, Sprague Dawley; rat plasma, oral gavage, 1 mg/kg
quantityName: AUC(0-t)
Please provide the amount together with its unit, number first.

In plain terms, CCOc1ccc(Cc2cc([C@]34OC[C@](CO)(O3)[C@@H](O)[C@H](O)[C@H]4O)ccc2Cl)cc1 has a documented AUC(0-t) of 2000 ng·h/mL

---

Assay: PK satellite group of the in-vivo UGE assay (plasma by LC-MS/MS)
Settings: male, Sprague Dawley; rat plasma, oral gavage, 30 mg/kg; read-out: Mean PK Parameters (n = 2) tmax
Protocol: Male Sprague Dawley rats (˜300 g) were singly housed in metabolic cages for urine collection. […] Rats (n=2 to 5/group) received vehicle or compound by oral gavage. […] Glucose concentration was measured in urine by UV absorbance spectrophotometry at 340 nm using a Roche Hitachi 917 spectrophotometer (Diamond Diagnostics, Holliston, Mass.). […] Blood (0.1 mL) was collected from the PK satellite group animals at 1, 2, 4, 7, 24 hours postdose to obtain plasma and analyzed by LC-MS/MS.
quantityName: Tmax (h)
Give bare numbers, in h.

In plain terms, CCOc1ccc(Cc2cc([C@]34OC[C@](CO)(O3)[C@@H](O)[C@H](O)[C@H]4O)ccc2Cl)cc1 [Example 4A] has a documented Tmax of 1

---

Assay: Pharmacokinetic testing in rats (IV or PO)
Format: in vivo
Conditions: male, Sprague Dawley, plasma; rat, IV, 2 mg/kg; read-out: Vss
Hi there, I'd appreciate the recorded Vd for every entry that follows.
Numbers only, in L/kg.

Consider the reported Vd for these compounds:
In plain terms, OC[C@@]12CO[C@@](c3ccc(F)c(Cc4ccc(Cl)cc4)c3)(O1)[C@H](O)[C@@H](O)[C@@H]2O [Example 12A] has a documented Vd of 3.68

In plain terms, CCOc1ccc(Cc2cc([C@]34OC[C@](CO)(O3)[C@@H](O)[C@H](O)[C@H]4O)ccc2Cl)cc1 has a documented Vd of 1.1

Attention now shifts to the item below.
In plain terms, OC[C@@]12CO[C@@](c3ccc(Cl)c(Cc4ccc(OC5COC5)cc4)c3)(O1)[C@H](O)[C@@H](O)[C@@H]2O [Example 14A] has a documented Vd of 1.69

---

Hi there, I'd appreciate the recorded AUC(0-t) for every entry that follows.
Test: PK satellite group of the in-vivo UGE assay (plasma by LC-MS/MS)
Settings: male, Sprague Dawley; rat plasma, oral gavage, 10 mg/kg
Numbers only, in ng·h/mL.

In plain terms, COc1ccc(Cc2cc([C@]34OC[C@](CO)(O3)[C@@H](O)[C@H](O)[C@H]4O)ccc2C)cc1 has a documented AUC(0-t) of 6630

Others:
In plain terms, CCOc1ccc(Cc2cc([C@]34OC[C@](CO)(O3)[C@@H](O)[C@H](O)[C@H]4O)ccc2Cl)cc1 has a documented AUC(0-t) of 26400

---

Assay: PK satellite group of the in-vivo UGE assay (plasma by LC-MS/MS)
Conditions: male, Sprague Dawley; rat plasma, oral gavage, 3 mg/kg
quantityName: AUC(0-t) (ng·h/mL)
One number for each entry, in ng·h/mL.

In plain terms, CCOc1ccc(Cc2cc([C@]34OC[C@](CO)(O3)[C@@H](O)[C@H](O)[C@H]4O)ccc2Cl)cc1 has a documented AUC(0-t) of 7080

---

Experiment: PK satellite group of the in-vivo UGE assay (plasma by LC-MS/MS)
Conditions: male, Sprague Dawley; rat plasma, oral gavage, 3 mg/kg; read-out: Mean PK Parameters (n = 2) tmax
quantityName: Tmax (h)
One number for each entry, in h.

In plain terms, CCOc1ccc(Cc2cc([C@]34OC[C@](CO)(O3)[C@@H](O)[C@H](O)[C@H]4O)ccc2Cl)cc1 [Example 4A] has a documented Tmax of 1

---

Experiment: PK satellite group of the in-vivo UGE assay (plasma by LC-MS/MS)
Conditions: male, Sprague Dawley; rat plasma, oral gavage, 0.1 mg/kg
quantityName: Cmax (ng/mL)
Give bare numbers, in ng/mL.

In plain terms, CCOc1ccc(Cc2cc([C@]34OC[C@](CO)(O3)[C@@H](O)[C@H](O)[C@H]4O)ccc2Cl)cc1 has a documented Cmax of 43.4

---

Assay: Pharmacokinetic testing in rats (IV or PO)
Type: in vivo
Conditions: rat, IV, 2 mg/kg
Hi there, I'd appreciate the recorded CL for every entry that follows.
Numbers only, in mL/min/kg.

Consider the reported CL for these compounds:
In plain terms, CCOc1ccc(Cc2cc([C@]34OC[C@](CO)(O3)[C@@H](O)[C@H](O)[C@H]4O)ccc2C)cc1 has a documented CL of 27.7

In plain terms, CCOc1ccc(Cc2cc([C@]34OC[C@](CO)(O3)[C@@H](O)[C@H](O)[C@H]4O)ccc2Cl)cc1 has a documented CL of 4.04

In plain terms, COc1ccc(Cc2cc([C@]34OC[C@](CO)(O3)[C@@H](O)[C@H](O)[C@H]4O)ccc2Cl)cc1 has a documented CL of 23.8

Attention now shifts to the item below.
In plain terms, COc1ccc(Cc2cc([C@]34OC[C@](CO)(O3)[C@@H](O)[C@H](O)[C@H]4O)ccc2C)cc1 has a documented CL of 37.1
